A compilation of log10 Ki values for Glucocorticoid receptor (Homo sapiens, UniProt P04150) from the published literature.
measured endpoint: log10 Ki (log10 of the value in nM)

compound: CC(C)C[C@@H](c1ccc2c(cnn2-c2ccc(F)cc2)c1)C(C)(C)CNC(=O)NCC(F)(F)F
reading: 0.15
--
compound: CC1=CC(C)(C)Nc2ccc3c(c21)/C(=C/c1ccccc1C)Oc1c(F)cccc1-3
reading: 2.37
--
compound: CC(C)(C(=O)Nc1nncs1)[C@@H]1c2ccccc2Oc2nc(-c3ccc(O)cc3)ccc21
reading: 0.76
--
compound: CC(C)n1cc(-c2ccc(C#N)cc2)c2ccc(NS(C)(=O)=O)cc21
reading: 3.18
--
compound: COc1ccc(-c2ccc3c(n2)Oc2ccccc2[C@H]3C(C)(C)C(=O)Nc2nncs2)cc1
reading: 1.69
--
compound: CC(C)(C(=O)Nc1nncs1)[C@H](c1ccccc1)c1ccc2[nH]ncc2c1
reading: 1.11
--
compound: CC(=O)c1ccc(-c2ccc3c(n2)Oc2ccccc2[C@@H]3C(C)(C)C(=O)Nc2nncs2)cc1F
reading: 0.78
--
compound: CC1=CC(C)(C)Nc2ccc3c(c21)/C(=C/c1cccc(F)c1)Oc1ccccc1-3
reading: 2.26
--
compound: COC(=O)C(C)(C)O/N=C1\CC(C)(C)Nc2cc(F)c(-c3cccc4c(C)c[nH]c34)c(F)c21
reading: 0.18
--
compound: C[C@H]1COc2cc(F)ccc2N1C(=O)c1ccc2c(c1)NC(=O)CO2
reading: 3.10
--
compound: CCCNC(=O)c1ccccc1CC[C@]1(O)CCC2=Cc3c(cnn3-c3ccc(F)cc3)C[C@@]21C
reading: 0.30
--
compound: CCS(=O)(=O)NCC(C)(C)[C@@H](c1ccccc1)c1ccc2c(cnn2-c2ccc(F)cc2)c1
reading: -0.14
--
compound: C=C1CCC(Br)C(C)(C)[C@@H]1Cc1cc(OC)c(Br)cc1O (some centres not stated)
reading: 3.51
--
compound: COc1c(O)ccc2c1-c1ccc3c(c1/C(=C/c1ccccc1-c1ccccc1)O2)C(C)=CC(C)(C)N3
reading: 0.83
--
compound: CC(C)(C(=O)Nc1nncs1)[C@@H](c1ccccc1)c1ccc2c(cnn2-c2cccnc2)c1
reading: -0.05
--
compound: CC(C)(C(=O)NC(=O)C1CC1)[C@@H]1c2ccc(-c3ccc(C(=O)N4CCOCC4)cc3)nc2Oc2c(F)cccc21
reading: 0.93
--
compound: CS(=O)(=O)Nc1cccc2cc[nH]c12
reading: 1.70
--
compound: CC(C)Oc1ccc(-c2ccc3c(n2)Oc2c(F)cccc2[C@@H]3C(C)(C)C(=O)NC(N)=O)cn1
reading: -0.15
--
compound: CC1=CC(C)(C)Nc2ccc3c(c21)C(c1ccc(C)c(F)c1)Oc1ccccc1-3 (configuration not stated)
reading: 1.78
--
compound: Cc1cc(-c2cccc3cc[nH]c23)cc2c1NC(C)(C)[C@H](O)[C@H]2C (racemic)
reading: 0.95
--
compound: CNC(=O)C[C@H]1CCc2cc(F)ccc2N1C(=O)c1ccc2c(c1)NC(=O)CO2
reading: 3.80
--
compound: COc1ccccc1-c1c[nH]c2c(NS(C)(=O)=O)cccc12
reading: 0.49
--
compound: CC(C)(C(=O)Nc1nncs1)[C@@H]1c2ccccc2Oc2cc(O)ccc21
reading: 1.77
--
compound: CCn1cc(-c2ccc(C#N)cc2)c2ccc(NS(C)(=O)=O)cc21
reading: 2.97
--
compound: CCc1ccc(-c2ccc3c(n2)Oc2ccccc2[C@H]3C(C)(C)C(=O)Nc2nncs2)cc1
reading: 0.00
--
compound: C[C@H]1c2c(cc(F)c(-c3cccc4cc[nH]c34)c2F)NC(C)(C)[C@@H]1OC(=O)Nc1ccc(Cl)cc1
reading: 1.85
--
compound: CC1=CC(C)(C)Nc2ccc3c(c21)C(CCC(C)C)Oc1ccccc1-3 (configuration not stated)
reading: 2.20
--
compound: CC1=CC(C)(C)Nc2ccc3c(c21)C(c1cc(Cl)cc(Cl)c1)Oc1ccccc1-3 (configuration not stated)
reading: 2.00
--
compound: C[C@]12Cn3cnc(-c4ccc(F)cc4)c3C=C1CCC[C@@H]2[C@](C)(O)c1cccc(C#N)c1
reading: 0.00
--
compound: Cc1c(F)c(-c2cccc3cc[nH]c23)cc2c1NC(C)(C)[C@H](O)[C@H]2C (racemic)
reading: -0.05
--
compound: C[C@H]1c2c(cc(F)c(-c3cccc4cc[nH]c34)c2F)NC(C)(C)[C@@H]1OC(=O)N(C)c1ccccc1
reading: 1.16
--
compound: COc1cc(NS(C)(=O)=O)c2[nH]c(C)c(-c3cc(F)ccc3OC)c2c1
reading: 2.06

---

experimental target: Glucocorticoid receptor (Homo sapiens, UniProt P04150)
Sequence (P04150 whole entry): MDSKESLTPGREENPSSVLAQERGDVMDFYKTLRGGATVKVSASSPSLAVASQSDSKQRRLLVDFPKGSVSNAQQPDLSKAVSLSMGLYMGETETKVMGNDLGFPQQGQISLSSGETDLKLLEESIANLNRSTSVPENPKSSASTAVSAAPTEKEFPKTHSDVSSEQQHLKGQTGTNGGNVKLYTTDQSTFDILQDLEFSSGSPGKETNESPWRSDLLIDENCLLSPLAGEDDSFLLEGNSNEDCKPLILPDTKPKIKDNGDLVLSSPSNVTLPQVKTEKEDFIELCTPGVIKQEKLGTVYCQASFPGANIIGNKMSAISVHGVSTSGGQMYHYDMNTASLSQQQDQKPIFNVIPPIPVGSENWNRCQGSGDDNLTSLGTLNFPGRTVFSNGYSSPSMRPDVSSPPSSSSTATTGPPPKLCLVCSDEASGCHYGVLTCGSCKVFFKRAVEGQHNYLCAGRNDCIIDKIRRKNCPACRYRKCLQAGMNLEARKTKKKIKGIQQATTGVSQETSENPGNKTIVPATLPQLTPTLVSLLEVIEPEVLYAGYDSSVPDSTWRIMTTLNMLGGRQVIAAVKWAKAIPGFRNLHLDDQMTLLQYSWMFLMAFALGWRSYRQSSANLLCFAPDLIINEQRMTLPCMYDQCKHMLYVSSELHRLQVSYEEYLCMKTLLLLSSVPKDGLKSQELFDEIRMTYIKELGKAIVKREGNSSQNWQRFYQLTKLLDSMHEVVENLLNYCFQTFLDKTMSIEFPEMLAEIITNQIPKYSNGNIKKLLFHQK
pKi: −log10 of the molar value.
A compilation of pKi values for Glucocorticoid receptor (Homo sapiens, UniProt P04150) from the published literature.
measured endpoint: pKi

molecule: COc1c(O)ccc2c1-c1ccc3c(c1/C(=C/c1sccc1C(O)C(F)(F)F)O2)C(C)=CC(C)(C)N3 (racemic)
reading: 8.85
//
molecule: CC(C)(CNC(=O)C(F)(F)F)[C@@H](c1ccccc1)c1ccc2c(cnn2-c2ccc(F)cc2)c1
reading: 8.76
//
molecule: CC(C)(C(=O)NC(N)=O)[C@H]1c2ccccc2Oc2nc(-c3ccc(C(=O)N4CCOCC4)cc3)ccc21
reading: 8.82
//
molecule: C=CCNC(=O)c1ccccc1CC[C@]1(O)CCC2=Cc3c(cnn3-c3ccc(F)cc3)C[C@@]21C
reading: 9.00
//
molecule: CC1=CC(C)(C)Nc2ccc3c(c21)/C(=C/c1ccccc1)Oc1c(F)cccc1-3
reading: 6.49
//
molecule: COc1c(O)ccc2c1-c1ccc3c(c1/C(=C/c1ccc(C(C)C)cc1)O2)C(C)=CC(C)(C)N3
reading: 8.54
//
molecule: CS(=O)(=O)Nc1cccc2c(-c3cccc(Cl)c3)c[nH]c12
reading: 8.30
//
molecule: CCS(=O)(=O)c1ccc(-c2ccc3c(n2)Oc2ccccc2[C@@H]3C(C)(C)C(=O)Nc2nncs2)cc1
reading: 8.40

---

experimental target: Glucocorticoid receptor (Homo sapiens)
Sequence (P04150 whole entry): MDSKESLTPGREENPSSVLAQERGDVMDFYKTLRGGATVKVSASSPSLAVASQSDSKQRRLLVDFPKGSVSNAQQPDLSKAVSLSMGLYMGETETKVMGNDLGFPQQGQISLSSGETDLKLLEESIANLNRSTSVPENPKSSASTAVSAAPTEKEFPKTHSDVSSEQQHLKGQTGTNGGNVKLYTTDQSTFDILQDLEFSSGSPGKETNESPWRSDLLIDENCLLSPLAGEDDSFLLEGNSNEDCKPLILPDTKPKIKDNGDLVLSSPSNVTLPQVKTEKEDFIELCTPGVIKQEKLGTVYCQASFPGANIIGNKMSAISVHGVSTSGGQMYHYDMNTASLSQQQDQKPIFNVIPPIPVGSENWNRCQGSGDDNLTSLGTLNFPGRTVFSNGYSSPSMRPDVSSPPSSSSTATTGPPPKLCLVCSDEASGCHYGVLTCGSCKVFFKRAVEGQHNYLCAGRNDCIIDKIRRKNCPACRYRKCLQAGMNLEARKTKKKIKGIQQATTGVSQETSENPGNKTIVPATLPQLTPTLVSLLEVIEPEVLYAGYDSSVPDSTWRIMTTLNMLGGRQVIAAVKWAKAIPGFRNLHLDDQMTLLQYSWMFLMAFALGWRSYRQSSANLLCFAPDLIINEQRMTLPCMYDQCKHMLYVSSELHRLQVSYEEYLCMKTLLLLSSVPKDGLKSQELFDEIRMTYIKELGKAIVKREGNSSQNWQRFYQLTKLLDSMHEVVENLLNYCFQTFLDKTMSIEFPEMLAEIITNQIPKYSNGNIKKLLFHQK
A compilation of Ki values for Glucocorticoid receptor (Homo sapiens) from the published literature.

compound: CNC(=O)c1ccc(-c2ccc3c(n2)Oc2ccccc2[C@@H]3C(C)(C)C(=O)Nc2nncs2)cc1
experimental target: Glucocorticoid receptor (Homo sapiens)
Ki [nM]: 9.17

compound: CC(C)(C(=O)Nc1nccs1)C(c1ccc2c(cnn2-c2ccc(F)cc2)c1)C1CCCCC1 (racemic)
experimental target: Glucocorticoid receptor (Homo sapiens)
Ki [nM]: 18

compound: CC(=O)c1cc([C@H](c2ccccc2)C(C)(C)C(=O)Nc2nccs2)ccc1O
experimental target: Glucocorticoid receptor (Homo sapiens)
Ki [nM]: 7.3

compound: CC1=CC(C)(C)Nc2ccc3c(c21)/C(=C/c1ccc(F)c(F)c1)Oc1ccccc1-3
experimental target: Glucocorticoid receptor (Homo sapiens)
Ki [nM]: 237

compound: CS(=O)(=O)Nc1cccc(C=C2c3ccccc3CCc3ccccc32)c1
experimental target: Glucocorticoid receptor (Homo sapiens)
Ki [nM]: 0.226

compound: Cc1cc(-c2cccc3cc[nH]c23)c(C#N)c2c1NC(C)(C)[C@H](O)[C@H]2C (racemic)
experimental target: Glucocorticoid receptor (Homo sapiens)
Ki [nM]: 1.3

compound: CCO/N=C/c1c(-c2cccc3cc[nH]c23)cc(C)c2c1[C@H](C)[C@@H](O)C(C)(C)N2 (racemic)
experimental target: Glucocorticoid receptor (Homo sapiens)
Ki [nM]: 1.5

compound: CC(C)(CNC(=O)CC(F)(F)F)[C@@H](c1ccccc1)c1ccc2c(cnn2-c2ccc(F)cc2)c1
experimental target: Glucocorticoid receptor (Homo sapiens)
Ki [nM]: 0.81

compound: C[C@]12Cc3cnn(-c4ccc(F)cc4)c3C=C1CC[C@@]2(O)CCc1cccc(F)c1C(=O)NC1(CO)CC1
experimental target: Glucocorticoid receptor (Homo sapiens)
Ki [nM]: 3

compound: CC(C)(C(=O)Nc1nncs1)C(c1ccccc1)c1ccc2c(-c3ccc(F)cc3)ncn2c1 (single isomer, unassigned; enantiomer 2)
experimental target: Glucocorticoid receptor (Homo sapiens)
Ki [nM]: 2
